Below, each entry is listed with its recorded inhibition at 10 µM.
# STUDY_SYSTEM: hERG (Homo sapiens, UniProt Q12809)
# Sequence (Q12809 whole entry): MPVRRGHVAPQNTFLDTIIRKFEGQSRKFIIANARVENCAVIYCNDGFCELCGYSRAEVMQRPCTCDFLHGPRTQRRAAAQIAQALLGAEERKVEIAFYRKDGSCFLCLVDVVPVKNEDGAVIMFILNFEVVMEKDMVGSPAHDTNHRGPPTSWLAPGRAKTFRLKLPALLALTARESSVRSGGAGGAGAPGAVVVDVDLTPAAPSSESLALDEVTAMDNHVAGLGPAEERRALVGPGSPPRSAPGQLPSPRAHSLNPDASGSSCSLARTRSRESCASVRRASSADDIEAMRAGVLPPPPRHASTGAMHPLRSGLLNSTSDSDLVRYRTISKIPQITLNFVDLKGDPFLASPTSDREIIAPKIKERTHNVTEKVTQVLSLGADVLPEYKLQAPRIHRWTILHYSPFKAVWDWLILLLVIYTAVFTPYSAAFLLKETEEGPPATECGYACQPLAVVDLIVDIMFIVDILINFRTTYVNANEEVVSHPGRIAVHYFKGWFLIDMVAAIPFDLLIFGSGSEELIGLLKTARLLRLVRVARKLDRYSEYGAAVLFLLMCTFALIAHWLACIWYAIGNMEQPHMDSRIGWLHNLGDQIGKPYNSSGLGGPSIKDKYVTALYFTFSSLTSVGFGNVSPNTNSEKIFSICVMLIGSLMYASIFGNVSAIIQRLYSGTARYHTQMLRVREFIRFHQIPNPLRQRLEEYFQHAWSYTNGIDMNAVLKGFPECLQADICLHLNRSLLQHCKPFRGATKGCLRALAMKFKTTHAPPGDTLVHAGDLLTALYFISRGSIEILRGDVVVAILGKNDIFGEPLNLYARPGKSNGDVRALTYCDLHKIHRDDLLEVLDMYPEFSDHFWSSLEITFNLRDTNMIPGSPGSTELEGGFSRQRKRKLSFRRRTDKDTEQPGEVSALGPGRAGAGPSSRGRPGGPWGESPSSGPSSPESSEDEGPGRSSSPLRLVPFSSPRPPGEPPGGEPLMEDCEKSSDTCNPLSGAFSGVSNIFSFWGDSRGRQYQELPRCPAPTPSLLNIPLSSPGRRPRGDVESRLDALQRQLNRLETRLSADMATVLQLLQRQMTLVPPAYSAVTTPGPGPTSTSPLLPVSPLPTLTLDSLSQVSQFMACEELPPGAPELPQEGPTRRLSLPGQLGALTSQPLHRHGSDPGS
# METHOD_SUMMARY: hERG inhibition (automated patch-clamp)
# Assay type: cell-based
MEASURE: inhibition at 10 µM (%)

COMPOUND	MEASURE	MEASURED_RESULT
CN1C2CCC1CC(N[C@H]1CC[C@@H](n3cc(-c4ccc(Oc5ccccc5)cc4)c4c(N)ncnc43)CC1)C2 (stereo partly shown)	inhibition at 10 µM	92
Nc1ncnc2c1c(-c1ccc(Oc3ccccc3)cc1)nn2[C@H]1CC[C@H](NC(=O)c2cccnc2)CC1	inhibition at 10 µM	50
Cn1nccc1CN[C@H]1CC[C@@H](n2cc(-c3ccc(Oc4ccccc4)cc3)c3c(N)ncnc32)CC1	inhibition at 10 µM	99
Cn1ccc(CN[C@H]2CC[C@@H](n3cc(-c4ccc(Oc5ccccc5)cc4)c4c(N)ncnc43)CC2)n1	inhibition at 10 µM	100
CC(C)N1CCN([C@H]2CC[C@H](n3cc(-c4ccc(Oc5ccccc5)cc4)c4c(N)ncnc43)CC2)CC1	inhibition at 10 µM	88
COc1cc(-c2cn([C@H]3CC[C@H](N4CCn5c(C)nnc5C4)CC3)c3ncnc(N)c23)ccc1NC(=O)c1cc2ccccc2n1C	inhibition at 10 µM	49
COCCN1CCN([C@H]2CC[C@H](n3cc(-c4ccc(Oc5ccccc5)cc4)c4c(N)ncnc43)CC2)CC1	inhibition at 10 µM	96

---

Consider the following compounds and their measured inhibition at 10 µM readings.
# STUDY_SYSTEM: hERG (Homo sapiens, UniProt Q12809)
# METHOD_SUMMARY: hERG inhibition (automated patch-clamp)
# Format: cell-based
MEASURE: inhibition at 10 µM (%)

STRUCTURE_SMILES	MEASURED_RESULT
Nc1ncnc2c1c(-c1ccc(Oc3ccccc3)cc1)cn2[C@H]1CC[C@@H](N[C@H]2CCNC2=O)CC1	97
Nc1ncnc2c1c(-c1ccc(Oc3ccccc3)cc1)cn2[C@H]1CC[C@@H](NCc2ccccn2)CC1	99
Nc1ncnc2c1c(-c1ccc(Oc3ccccc3)cc1)cn2[C@H]1CC[C@@H](NCc2cccnc2)CC1	99
Cn1nccc1CN[C@H]1CC[C@H](n2cc(-c3ccc(Oc4ccccc4)cc3)c3c(N)ncnc32)CC1	97

---

# STUDY_SYSTEM: FLT3-ITD (Homo sapiens)
# METHOD_SUMMARY: FLT3-ITD kinase inhibition
# Type: biochemical

COMPOUND	UNITS_SYMBOL	IC50
CN1C2CC[C@@H]1CN(C1CCC(n3nc(-c4ccc(Oc5ccccc5)cc4)c4c(N)ncnc43)CC1)C2 (stereo partly shown)	nM	87

---

# STUDY_SYSTEM: hERG (Homo sapiens, UniProt Q12809)
# METHOD_SUMMARY: hERG inhibition (automated patch-clamp)
# Type: cell-based
MEASURE: inhibition at 10 µM (%)

COMPOUND	MEASURE	MEASURED_RESULT
Nc1ncnc2c1c(-c1ccc(Oc3ccccc3)cc1)cn2[C@H]1CC[C@@H](NC2CCOCC2)CC1 [Example 48]	inhibition at 10 µM	99
CN1C2CCC1CC(N1CCC(n3nc(-c4ccc(NC(=O)c5cc6ccccc6n5C)cc4)c4c(N)ncnc43)CC1)C2 (stereo not drawn) [Example 25]	inhibition at 10 µM	42
CN1C2CCC1CN([C@H]1CC[C@H](n3nc(-c4ccc(NC(=O)c5ccccn5)cc4)c4c(N)ncnc43)CC1)C2 [Example 21]	inhibition at 10 µM	48

---

The following compounds are shown together with reported IC50 values.
# STUDY_SYSTEM: FLT3-ITD (Homo sapiens, UniProt P36888, ITD)
# Sequence (P36888 27-993): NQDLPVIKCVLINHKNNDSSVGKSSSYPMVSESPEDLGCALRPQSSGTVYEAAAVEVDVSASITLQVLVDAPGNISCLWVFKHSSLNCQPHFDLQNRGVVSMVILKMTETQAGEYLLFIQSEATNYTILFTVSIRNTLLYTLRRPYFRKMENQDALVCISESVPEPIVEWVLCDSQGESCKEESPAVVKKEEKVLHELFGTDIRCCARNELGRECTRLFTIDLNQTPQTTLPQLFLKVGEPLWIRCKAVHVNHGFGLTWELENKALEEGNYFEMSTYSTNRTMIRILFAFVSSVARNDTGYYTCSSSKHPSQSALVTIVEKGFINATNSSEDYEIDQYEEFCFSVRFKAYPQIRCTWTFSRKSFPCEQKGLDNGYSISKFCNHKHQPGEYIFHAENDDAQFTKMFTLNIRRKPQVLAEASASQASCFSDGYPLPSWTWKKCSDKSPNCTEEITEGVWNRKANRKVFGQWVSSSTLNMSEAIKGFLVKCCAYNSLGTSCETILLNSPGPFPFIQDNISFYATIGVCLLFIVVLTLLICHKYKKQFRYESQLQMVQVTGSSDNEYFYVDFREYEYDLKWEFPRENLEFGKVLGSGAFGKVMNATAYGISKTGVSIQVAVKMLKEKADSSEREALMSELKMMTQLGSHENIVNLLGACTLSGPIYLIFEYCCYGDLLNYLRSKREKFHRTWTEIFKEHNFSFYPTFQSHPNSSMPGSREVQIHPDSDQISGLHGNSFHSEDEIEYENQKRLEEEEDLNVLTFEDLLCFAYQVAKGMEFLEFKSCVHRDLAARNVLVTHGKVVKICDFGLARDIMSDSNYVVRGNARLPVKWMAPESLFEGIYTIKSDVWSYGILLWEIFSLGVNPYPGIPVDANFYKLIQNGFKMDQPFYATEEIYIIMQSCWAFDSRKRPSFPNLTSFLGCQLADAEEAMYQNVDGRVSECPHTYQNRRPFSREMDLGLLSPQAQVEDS
# METHOD_SUMMARY: FLT3-ITD kinase inhibition

COMPOUND	STUDY_SYSTEM	IC50
Nc1ncnc2c1c(-c1ccc(Oc3ccccc3)cc1)cn2[C@H]1CC[C@@H](NCC(=O)O)CC1	FLT3-ITD (Homo sapiens, UniProt P36888, ITD)	23 nM
Nc1ncnc2c1c(-c1ccc(Oc3ccccc3)cc1)cn2[C@H]1CC[C@H](N2CCn3c(nnc3C(F)(F)F)C2)CC1	FLT3-ITD (Homo sapiens, UniProt P36888, ITD)	43 nM
Nc1ncnc2c1c(-c1ccc(Oc3ccccc3)cc1)cn2[C@H]1CC[C@H](N[C@H]2CCNC2=O)CC1	FLT3-ITD (Homo sapiens, UniProt P36888, ITD)	25 nM
CN1CCN([C@H]2CC[C@H](n3nc(-c4ccc(Oc5ccccc5)cc4)c4c(N)ncnc43)CC2)CC1	FLT3-ITD (Homo sapiens, UniProt P36888, ITD)	55 nM
Nc1ncnc2c1c(-c1ccc(Oc3ccccc3)cc1)cn2C1CCN(C2CCNCC2)CC1	FLT3-ITD (Homo sapiens, UniProt P36888, ITD)	43 nM
Nc1ncnc2c1c(-c1ccc(Oc3ccccc3)cc1)cn2[C@H]1CC[C@H](N2CCNCC2)CC1	FLT3-ITD (Homo sapiens, UniProt P36888, ITD)	21 nM
Cn1nccc1CN[C@H]1CC[C@@H](n2cc(-c3ccc(Oc4ccccc4)cc3)c3c(N)ncnc32)CC1	FLT3-ITD (Homo sapiens, UniProt P36888, ITD)	23 nM
COc1cc(-c2nn([C@H]3CC[C@H](N4CCN(C)CC4)CC3)c3ncnc(N)c23)ccc1NC(=O)c1cc2ccccc2n1C	FLT3-ITD (Homo sapiens, UniProt P36888, ITD)	2750 nM
Nc1ncnc2c1c(-c1ccc(Oc3ccccc3)cc1)cn2[C@H]1CC[C@H](NC(=O)c2cccnc2)CC1	FLT3-ITD (Homo sapiens, UniProt P36888, ITD)	108 nM
Nc1ncnc2c1c(-c1ccc(Oc3ccccc3)cc1)cn2[C@H]1CC[C@H](N2CCN(CCO)CC2)CC1	FLT3-ITD (Homo sapiens, UniProt P36888, ITD)	21 nM
Nc1ncnc2c1c(-c1ccc(Oc3ccccc3)cc1)cn2[C@H]1CC[C@@H](NC2CCOCC2)CC1	FLT3-ITD (Homo sapiens, UniProt P36888, ITD)	6.8 nM
Nc1ncnc2c1c(-c1ccc(Oc3ccccc3)cc1)cn2[C@H]1CC[C@H](NCC(=O)O)CC1	FLT3-ITD (Homo sapiens, UniProt P36888, ITD)	24 nM
CN1C2CCC1CN([C@H]1CC[C@H](n3nc(-c4ccc(NC(=O)c5cc6ccccc6n5C)cc4)c4c(N)ncnc43)CC1)C2	FLT3-ITD (Homo sapiens, UniProt P36888, ITD)	3330 nM
Nc1ncnc2c1c(-c1ccc(Oc3ccccc3)cc1)cn2[C@H]1CC[C@@H](NCc2cccnc2)CC1	FLT3-ITD (Homo sapiens, UniProt P36888, ITD)	8.8 nM
COc1cc(-c2cn([C@H]3CC[C@H](N4CCn5c(C)nnc5C4)CC3)c3ncnc(N)c23)ccc1NC(=O)c1cc2ccccc2n1C	FLT3-ITD (Homo sapiens, UniProt P36888, ITD)	> 2500 nM
CN1CCN([C@H]2CC[C@H](n3cc(-c4ccc(NC(=O)c5cc6ccccc6n5C)cc4)c4c(N)ncnc43)CC2)CC1	FLT3-ITD (Homo sapiens, UniProt P36888, ITD)	255 nM
CN1[C@@H]2CC[C@H]1CC(N1CCC(n3cc(-c4ccc(Oc5ccccc5)cc4)c4c(N)ncnc43)CC1)C2 (stereo partly shown)	FLT3-ITD (Homo sapiens, UniProt P36888, ITD)	23 nM
COc1cc(-c2cn([C@H]3CC[C@H](N4CCN(C)CC4)CC3)c3ncnc(N)c23)ccc1NC(=O)c1cc2ccccc2n1C	FLT3-ITD (Homo sapiens, UniProt P36888, ITD)	609 nM
COc1cc(-c2cn([C@H]3CC[C@H](N4CCn5c(cnc5C)C4)CC3)c3ncnc(N)c23)ccc1NC(=O)c1cc2ccccc2n1C	FLT3-ITD (Homo sapiens, UniProt P36888, ITD)	409 nM
CC(C)N1CCN([C@H]2CC[C@H](n3cc(-c4ccc(Oc5ccccc5)cc4)c4c(N)ncnc43)CC2)CC1	FLT3-ITD (Homo sapiens, UniProt P36888, ITD)	22 nM
CN1C2CCC1CN([C@H]1CC[C@H](n3nc(-c4ccc(NC(=O)c5ccccn5)cc4)c4c(N)ncnc43)CC1)C2	FLT3-ITD (Homo sapiens, UniProt P36888, ITD)	1180 nM
CN1CCN([C@H]2CC[C@H](n3nc(-c4ccc(NC(=O)c5cc6ccccc6n5C)cc4)c4c(N)ncnc43)CC2)CC1	FLT3-ITD (Homo sapiens, UniProt P36888, ITD)	1080 nM
Nc1ncnc2c1c(-c1ccc(Oc3ccccc3)cc1)nn2[C@H]1CC[C@H](NC(=O)c2ccccn2)CC1	FLT3-ITD (Homo sapiens, UniProt P36888, ITD)	548 nM
Nc1ncnc2c1c(-c1ccc(Oc3ccccc3)cc1)nn2[C@H]1CC[C@H](NC(=O)c2ccncc2)CC1	FLT3-ITD (Homo sapiens, UniProt P36888, ITD)	414 nM
CC(C)(C)N1CCN([C@H]2CC[C@H](n3cc(-c4ccc(Oc5ccccc5)cc4)c4c(N)ncnc43)CC2)CC1	FLT3-ITD (Homo sapiens, UniProt P36888, ITD)	17 nM
NC(=O)CN[C@H]1CC[C@@H](n2cc(-c3ccc(Oc4ccccc4)cc3)c3c(N)ncnc32)CC1	FLT3-ITD (Homo sapiens, UniProt P36888, ITD)	23 nM
Nc1ncnc2c1c(-c1ccc(Oc3ccccc3)cc1)cn2[C@H]1CC[C@@H](NCc2ccncc2)CC1	FLT3-ITD (Homo sapiens, UniProt P36888, ITD)	6.6 nM
Cc1nnc2n1CCN([C@H]1CC[C@H](n3cc(-c4ccc(Oc5ccccc5)cc4)c4c(N)ncnc43)CC1)C2	FLT3-ITD (Homo sapiens, UniProt P36888, ITD)	23 nM
